- targetDesc: human TLR8 (Homo sapiens, UniProt Q9NR97)
- Sequence (Q9NR97 27-1041): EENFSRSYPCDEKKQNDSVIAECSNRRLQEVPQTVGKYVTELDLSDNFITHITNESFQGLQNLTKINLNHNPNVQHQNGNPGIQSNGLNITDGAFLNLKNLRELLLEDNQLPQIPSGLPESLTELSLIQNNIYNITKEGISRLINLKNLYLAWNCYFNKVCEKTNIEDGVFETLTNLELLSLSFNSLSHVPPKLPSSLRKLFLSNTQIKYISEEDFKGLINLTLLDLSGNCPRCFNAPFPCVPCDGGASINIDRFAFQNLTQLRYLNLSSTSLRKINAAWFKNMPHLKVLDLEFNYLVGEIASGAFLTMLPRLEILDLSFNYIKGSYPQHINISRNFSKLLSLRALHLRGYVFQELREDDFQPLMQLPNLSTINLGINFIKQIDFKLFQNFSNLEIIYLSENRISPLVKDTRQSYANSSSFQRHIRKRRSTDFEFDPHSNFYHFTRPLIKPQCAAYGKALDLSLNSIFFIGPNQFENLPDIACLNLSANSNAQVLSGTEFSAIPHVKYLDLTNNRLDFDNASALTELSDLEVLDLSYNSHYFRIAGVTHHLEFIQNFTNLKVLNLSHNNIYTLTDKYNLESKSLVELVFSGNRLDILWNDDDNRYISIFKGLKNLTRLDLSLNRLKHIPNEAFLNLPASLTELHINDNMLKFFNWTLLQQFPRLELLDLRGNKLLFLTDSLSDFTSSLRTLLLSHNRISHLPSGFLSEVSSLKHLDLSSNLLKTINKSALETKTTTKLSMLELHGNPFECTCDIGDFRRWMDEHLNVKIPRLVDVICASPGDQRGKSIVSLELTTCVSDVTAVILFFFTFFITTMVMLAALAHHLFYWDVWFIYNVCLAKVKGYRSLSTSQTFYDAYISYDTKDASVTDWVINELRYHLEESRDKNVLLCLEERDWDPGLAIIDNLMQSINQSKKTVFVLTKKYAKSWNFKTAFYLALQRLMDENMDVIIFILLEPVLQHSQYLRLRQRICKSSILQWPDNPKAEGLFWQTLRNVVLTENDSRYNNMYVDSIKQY
- experimentNotes: HEK293-Blue-hTLR-8 cells assay (SEAP reporter, R848 stimulation)
- measurementContext: HEK293-Blue-hTLR8 cells, R848 ligand, 20 hrs; read-out: HEK/hTLR8 IC50
Response field label takes Y when IC50 is strictly below 9 nM and N in all other cases.

// known answers, use as guide
>  <givenSmiles>
C[C@@H]1CN(c2ccc(C#N)c3ncccc23)C[C@@H]2CCN(c3cnc(N4CCNCC4)nc3)CCN21

>  <label>
N

$$$$
>  <givenSmiles>
C[C@@H]1CN(c2cc(=O)n(C)c3ncccc23)C[C@@H]2CCN(Cc3ccc4c(c3)CNCC4)CCN21

>  <label>
N

$$$$
>  <givenSmiles>
C[C@@H]1CN(c2ccc(C#N)c3ncccc23)C[C@@H]2CCN(Cc3cc4c(cn3)CCNC4)CCN21

>  <label>
Y

$$$$
>  <givenSmiles>
C[C@@H]1CN(c2ccc(C#N)c3ncccc23)C[C@@H]2CCN(Cc3ccc4c(c3)CNCC4)CCN21

>  <label>
Y

$$$$
>  <givenSmiles>
C[C@@H]1CN(c2ccc(C#N)c3ncccc23)C[C@@H]2CCN(Cc3cnc(N4CCNCC4)cn3)CCN21

>  <label>
Y

$$$$

Now for a further compound.
Q: Strictly below 9 nM: is that where IC50 of "C[C@@H]1CN(c2ccc(C#N)c3ncccc23)C[C@@H]2CCN(Cc3ccc(N4CCNCC4)nc3)CCN21" sits?
Ans: Y

----------
Recorded measurements of IC50, one per entry
- targetDesc: human TLR7 (Homo sapiens, UniProt Q9NYK1)
- Sequence (Q9NYK1 27-1049): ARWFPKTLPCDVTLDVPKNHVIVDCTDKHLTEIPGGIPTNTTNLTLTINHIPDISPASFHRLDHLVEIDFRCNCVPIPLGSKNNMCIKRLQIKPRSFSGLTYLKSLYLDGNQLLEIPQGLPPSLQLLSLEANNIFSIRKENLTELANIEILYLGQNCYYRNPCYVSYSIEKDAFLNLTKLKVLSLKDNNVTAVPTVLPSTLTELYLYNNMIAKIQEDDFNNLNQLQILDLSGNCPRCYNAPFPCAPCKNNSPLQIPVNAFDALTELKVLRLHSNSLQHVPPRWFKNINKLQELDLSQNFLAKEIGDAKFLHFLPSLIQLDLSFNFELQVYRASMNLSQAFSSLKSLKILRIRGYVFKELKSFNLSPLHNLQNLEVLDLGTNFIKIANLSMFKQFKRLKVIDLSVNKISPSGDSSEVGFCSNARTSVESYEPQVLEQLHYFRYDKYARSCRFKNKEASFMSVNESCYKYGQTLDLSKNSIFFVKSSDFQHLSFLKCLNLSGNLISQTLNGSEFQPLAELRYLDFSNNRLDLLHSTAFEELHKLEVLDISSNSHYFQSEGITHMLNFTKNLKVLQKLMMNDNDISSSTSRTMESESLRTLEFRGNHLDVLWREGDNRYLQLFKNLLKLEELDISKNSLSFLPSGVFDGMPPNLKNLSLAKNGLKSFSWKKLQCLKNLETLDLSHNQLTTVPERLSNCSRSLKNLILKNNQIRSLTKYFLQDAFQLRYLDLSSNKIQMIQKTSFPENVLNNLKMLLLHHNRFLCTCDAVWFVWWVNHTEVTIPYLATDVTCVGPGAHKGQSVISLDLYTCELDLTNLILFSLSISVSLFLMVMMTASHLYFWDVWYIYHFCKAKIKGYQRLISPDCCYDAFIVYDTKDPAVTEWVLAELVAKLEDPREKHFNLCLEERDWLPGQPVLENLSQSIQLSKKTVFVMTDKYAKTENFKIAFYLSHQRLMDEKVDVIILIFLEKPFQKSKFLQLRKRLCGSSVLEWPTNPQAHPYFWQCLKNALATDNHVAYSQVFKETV
- experimentNotes: HEK293-Blue-hTLR-7 cells assay (SEAP reporter, R848 stimulation)
- measurementContext: HEK293-Blue-hTLR7 cells, R848 ligand, 20 hrs; read-out: HEK/hTLR7 IC50
Respond numerically; units are nM and should not be typed.

>  <givenSmiles>
C[C@@H]1CN(c2ccc(C#N)c3ncccc23)C[C@@H]2CCN(Cc3cc4c(cn3)CCNC4)CCN21

>  <unit>
nM

>  <reportedValue>
8.2

$$$$
>  <givenSmiles>
C[C@@H]1CN(c2ccc(C#N)c3ncccc23)C[C@@H]2CCN(Cc3cncc(N4CCNCC4)c3)CCN21

>  <unit>
nM

>  <reportedValue>
11.1

$$$$

Q: Provide measured IC50 value, entry: "C[C@@H]1CN(c2ccc(C#N)c3ncccc23)C[C@@H]2CCN(Cc3cnc4c(c3)CNCC4)CCN21"
Ans: 9.3

----------
- targetDesc: human TLR8 (Homo sapiens, UniProt Q9NR97)
- experimentNotes: HEK293-Blue-hTLR-8 cells assay (SEAP reporter, R848 stimulation)
- Type: cell-based
- measurementContext: HEK293-Blue-hTLR8 cells, R848 ligand, 20 hrs; read-out: HEK/hTLR8 IC50
Recorded measurements of pIC50, one per entry
Quick note: pIC50 values are minus log10 of concentrations in mol/L.

Look over these answered cases.
>  <givenSmiles>
C[C@@H]1CN(c2ccc(C#N)c3ncccc23)C[C@@H]2CCN(c3cncc4c3CCNC4)CCN21

>  <pIC50>
8.62

$$$$
>  <givenSmiles>
C[C@@H]1CN(c2ccc(C#N)c3ncccc23)C[C@@H]2CCN(c3ccc(N4CCNCC4)nc3)CCN21

>  <pIC50>
7.21

$$$$
>  <givenSmiles>
C[C@@H]1CN(c2ccc(C#N)c3ncccc23)C[C@@H]2CCN(Cc3cncc(N4CCNCC4)c3)CCN21

>  <pIC50>
7.92

$$$$

Q: Provide measured pIC50 value, entry: "C[C@@H]1CN(c2ccc(C#N)c3ncccc23)C[C@@H]2CCN(Cc3cnc4c(c3)CNCC4)CCN21"
Ans: 8.28

Q: Provide measured pIC50 value, entry: "C[C@@H]1CN(c2ccc(C#N)c3ncccc23)C[C@@H]2CCN(Cc3ccc(N4CCOC[C@H](N)C4)cn3)CCN21"
Ans: 7.06
